assay: small-molecule microarray binders of probe aShh, primary screen, biochemical, biotinylated probe, 635/667 nm fluorescence (AID 1114); conditions: higher = more signal;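 note: probe is biotin-labelled aShh protein from a stem cell growth factor screen; measures binding of labelled protein to compounds printed on the slide; score merges feature fluorescence at 667 nm with signal-to-noise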
Please go through the items and note down their composite z-score.
One number for each entry.

C=CCC(OC(C)=O)[C@@H]1[C@@H](N(Cc2cc3ccccc3o2)C(=O)c2ccc(C)cc2)c2cc(OCCCO)ccc2N1C(=O)c1ccc2ccccc2n1 (stereo partly drawn)	-0.043
NC(=O)NCC#Cc1ccc2c(c1)[C@]1(C(=O)N2)[C@H](C(=O)N2CCCCCCC2)[C@H]2C(=O)O[C@H](c3ccccc3)[C@H](c3ccccc3)N2[C@@H]1c1ccccc1OCCO	2.38

What does the record list as composite z-score for CO[C@H]1COC(=O)[C@@H](Cc2ccccc2)NC(=O)[C@@H](C)COC(=O)CC=C[C@@H]1C ? -0.124
